Study Target: JAK2 (Homo sapiens, UniProt O60674)
Construct: host or cells: baculovirus expression system
Sequence (O60674 whole entry): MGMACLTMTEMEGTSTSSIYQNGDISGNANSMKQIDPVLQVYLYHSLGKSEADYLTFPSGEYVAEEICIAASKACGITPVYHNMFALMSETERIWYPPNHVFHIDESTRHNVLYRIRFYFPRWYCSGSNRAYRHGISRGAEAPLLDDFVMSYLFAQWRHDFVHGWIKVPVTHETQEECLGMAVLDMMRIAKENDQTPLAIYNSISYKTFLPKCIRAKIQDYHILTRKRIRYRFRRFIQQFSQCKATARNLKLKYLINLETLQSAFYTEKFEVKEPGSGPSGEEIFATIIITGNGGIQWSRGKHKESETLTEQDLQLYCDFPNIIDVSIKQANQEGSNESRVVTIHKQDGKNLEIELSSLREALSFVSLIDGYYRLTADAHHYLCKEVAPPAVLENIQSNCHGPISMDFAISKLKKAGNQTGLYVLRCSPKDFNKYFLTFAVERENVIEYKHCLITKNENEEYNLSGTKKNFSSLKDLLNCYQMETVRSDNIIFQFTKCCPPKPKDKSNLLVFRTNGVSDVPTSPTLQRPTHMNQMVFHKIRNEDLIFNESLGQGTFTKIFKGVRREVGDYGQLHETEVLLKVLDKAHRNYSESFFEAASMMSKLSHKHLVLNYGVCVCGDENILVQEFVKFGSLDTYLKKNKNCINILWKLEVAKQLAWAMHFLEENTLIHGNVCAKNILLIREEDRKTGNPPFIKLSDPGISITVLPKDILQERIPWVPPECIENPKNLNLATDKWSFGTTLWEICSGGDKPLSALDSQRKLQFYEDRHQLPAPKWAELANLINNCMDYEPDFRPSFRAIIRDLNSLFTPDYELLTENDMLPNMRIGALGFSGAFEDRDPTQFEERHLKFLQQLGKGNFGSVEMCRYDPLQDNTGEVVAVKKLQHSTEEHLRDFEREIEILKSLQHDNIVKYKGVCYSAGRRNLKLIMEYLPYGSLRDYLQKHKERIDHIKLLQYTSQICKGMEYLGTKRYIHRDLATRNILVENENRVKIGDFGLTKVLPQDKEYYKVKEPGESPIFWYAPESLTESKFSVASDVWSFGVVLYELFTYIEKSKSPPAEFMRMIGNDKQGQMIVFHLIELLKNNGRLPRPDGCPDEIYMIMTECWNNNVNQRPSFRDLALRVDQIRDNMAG
Assay Summary: Recombinant Human JAK2 Kinase Assay (TRF)
Assay type: biochemical
Condition Parameters: JAK2 kinase inhibition, 0.2 μM ATP; read-out: JAK2 Potency
pIC50: −log10 of the molar value.
Property: pIC50

Some solved cases for reference:
COc1cc(C2CCN(CC(N)=O)CC2)ccc1Nc1ncc2ccc(-c3cc(F)c(F)cc3N(C)S(C)(=O)=O)n2n1; 5.00 to 6.00
CN(c1ccccc1-c1ccc2cnc(Nc3ccc4nn(CCN5CCOCC5)cc4c3)nn12)S(C)(=O)=O; > 7.00
CN1CCN(c2ccc(Nc3ncc4ccc(-c5cnn(C)c5)n4n3)cc2F)CC1; > 7.00
COc1cc(CN2C[C@@H](O)[C@H](O)C2)ccc1Nc1ncc2ccc(-c3ccccc3N(C)S(C)(=O)=O)n2n1; 5.00 to 6.00
CN1CCN(Cc2cccc(Nc3ncc4ccc(-c5cccc(S(C)(=O)=O)c5)n4n3)n2)CC1; < 5.00
COc1cc(CCN2CCN(C)CC2)ccc1Nc1ncc2ccc(-c3ccccc3N(C)S(C)(=O)=O)n2n1; 6.00 to 7.00

Switching to the query record.
Which pIC50 is listed for COc1ccc(-c2ccc3cnc(Nc4ccn(CC(=O)N5CCOCC5)n4)nn23)cn1 ? > 7.00
